- assayed.system: T1, human CD22, endogenous on Raji cells (human, UniProt P20273 20-847)
- T1 construct: whole, on cells; Endogenous protein of the Raji cell line
- T1 sequence (looked up): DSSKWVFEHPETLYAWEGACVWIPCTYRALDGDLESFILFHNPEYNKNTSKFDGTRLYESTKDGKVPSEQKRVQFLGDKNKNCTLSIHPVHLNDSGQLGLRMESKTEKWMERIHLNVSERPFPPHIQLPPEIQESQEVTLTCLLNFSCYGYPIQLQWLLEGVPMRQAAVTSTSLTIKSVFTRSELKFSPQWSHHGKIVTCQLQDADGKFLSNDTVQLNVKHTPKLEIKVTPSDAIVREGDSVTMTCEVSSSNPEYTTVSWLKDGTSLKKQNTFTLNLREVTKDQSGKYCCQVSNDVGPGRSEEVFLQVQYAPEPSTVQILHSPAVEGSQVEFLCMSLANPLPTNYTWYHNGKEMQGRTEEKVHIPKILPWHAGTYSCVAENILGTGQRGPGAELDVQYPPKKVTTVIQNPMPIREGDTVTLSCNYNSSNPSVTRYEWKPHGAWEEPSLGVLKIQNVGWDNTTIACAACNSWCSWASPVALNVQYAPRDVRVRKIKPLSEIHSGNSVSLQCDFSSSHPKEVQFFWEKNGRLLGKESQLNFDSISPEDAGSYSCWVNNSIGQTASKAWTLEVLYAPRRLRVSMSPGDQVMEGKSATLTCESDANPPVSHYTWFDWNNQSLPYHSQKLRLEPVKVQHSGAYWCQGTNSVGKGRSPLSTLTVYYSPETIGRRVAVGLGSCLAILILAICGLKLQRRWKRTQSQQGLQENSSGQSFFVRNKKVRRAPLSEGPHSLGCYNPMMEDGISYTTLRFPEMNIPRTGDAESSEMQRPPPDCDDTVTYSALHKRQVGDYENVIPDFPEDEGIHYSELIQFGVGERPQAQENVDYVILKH
- assay.explanation: FACS, Raji cells
reported.property: Maximum mean fluorescence intensity (MFI)
One number for each entry, in MFI.

binder="F1.17.1 human-murine chimeric antibody (antibody, human IgG1, kappa, V domains shown, Chimeric, human IgG1 / kappa) VH: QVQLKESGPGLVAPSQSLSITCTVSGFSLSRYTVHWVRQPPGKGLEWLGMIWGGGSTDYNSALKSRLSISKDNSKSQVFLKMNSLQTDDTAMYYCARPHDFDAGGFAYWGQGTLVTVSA VL: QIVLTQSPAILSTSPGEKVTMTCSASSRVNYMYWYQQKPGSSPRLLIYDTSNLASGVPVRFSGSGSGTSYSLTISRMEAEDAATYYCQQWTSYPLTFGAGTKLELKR" reported_property="Maximum mean fluorescence intensity" measurement_unit=MFI assay_result=28500

// below: Maximum mean fluorescence intensity requested for another binder
Q: Fill in the blank: the reported Maximum mean fluorescence intensity of F1.216.2 human-murine chimeric antibody (antibody, human IgG1, kappa, V domains shown, Chimeric, human IgG1 / kappa) VH: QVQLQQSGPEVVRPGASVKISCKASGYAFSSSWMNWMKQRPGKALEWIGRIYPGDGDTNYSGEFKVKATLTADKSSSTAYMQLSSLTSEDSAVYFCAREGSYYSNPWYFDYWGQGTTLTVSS VL: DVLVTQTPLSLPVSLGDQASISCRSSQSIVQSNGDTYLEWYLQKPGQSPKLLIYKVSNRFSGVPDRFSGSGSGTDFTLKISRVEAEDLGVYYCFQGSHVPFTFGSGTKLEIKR is ____.
Result: 25300

Each recorded value in this set is attributed to patent US20240084003A1.
